# target_or_test_system: Progesterone receptor (Homo sapiens, UniProt P06401)
# Sequence (P06401 whole entry): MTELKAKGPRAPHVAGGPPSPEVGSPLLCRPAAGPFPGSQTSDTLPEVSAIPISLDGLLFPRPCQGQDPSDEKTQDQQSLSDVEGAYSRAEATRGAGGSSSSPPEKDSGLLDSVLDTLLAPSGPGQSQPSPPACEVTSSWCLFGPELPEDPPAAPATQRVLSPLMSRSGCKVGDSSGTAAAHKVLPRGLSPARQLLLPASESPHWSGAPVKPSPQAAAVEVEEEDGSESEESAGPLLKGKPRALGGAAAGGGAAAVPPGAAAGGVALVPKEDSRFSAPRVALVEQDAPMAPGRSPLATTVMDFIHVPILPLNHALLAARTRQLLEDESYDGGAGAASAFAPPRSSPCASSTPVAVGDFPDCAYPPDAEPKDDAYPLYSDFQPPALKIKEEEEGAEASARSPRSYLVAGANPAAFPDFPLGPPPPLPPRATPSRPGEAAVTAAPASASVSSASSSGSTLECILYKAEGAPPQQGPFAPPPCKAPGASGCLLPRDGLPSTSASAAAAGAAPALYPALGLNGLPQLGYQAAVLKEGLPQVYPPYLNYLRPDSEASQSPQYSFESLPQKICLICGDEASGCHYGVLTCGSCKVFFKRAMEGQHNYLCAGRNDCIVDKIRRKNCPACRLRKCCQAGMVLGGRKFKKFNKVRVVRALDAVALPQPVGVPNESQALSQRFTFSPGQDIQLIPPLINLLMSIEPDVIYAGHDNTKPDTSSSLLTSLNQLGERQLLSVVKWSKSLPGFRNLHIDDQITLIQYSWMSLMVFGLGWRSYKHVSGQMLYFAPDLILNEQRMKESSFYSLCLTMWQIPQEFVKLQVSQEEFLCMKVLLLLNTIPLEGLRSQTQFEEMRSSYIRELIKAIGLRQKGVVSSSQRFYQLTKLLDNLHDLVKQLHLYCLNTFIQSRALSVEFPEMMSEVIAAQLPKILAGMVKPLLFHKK
# measurement_protocol: Antagonist activity at progesterone receptor in human T47D-C124 cells transfected with luciferase gene linked to MMTV promoter assessed as inhibition of progesterone-induced luciferase transactivation activity after 24 hrs
# Format: functional, cell-based
parameter_measured: IC50 (nM)

// worked examples, IC50 included
query_smiles=CC#C[C@]1(O)CC[C@H]2[C@@H]3CCC4=CC(=O)CCC4=C3[C@@H](c3ccc(N(C)CCCO)cc3)C[C@@]21C parameter_measured=IC50 observed_measurement=0.105
query_smiles=CC#C[C@]1(O)CC[C@H]2[C@@H]3CCC4=CC(=O)CCC4=C3[C@@H](c3ccc(N(C)CCCCCC4OCCO4)cc3)C[C@@]21C parameter_measured=IC50 observed_measurement=0.073
query_smiles=CC#C[C@]1(O)CC[C@H]2[C@@H]3CCC4=CC(=O)CCC4=C3[C@@H](c3ccc(N(C)CCCCCCO)cc3)C[C@@]21C parameter_measured=IC50 observed_measurement=0.071
query_smiles=CC#C[C@]1(O)CC[C@H]2[C@@H]3CCC4=CC(=O)CCC4=C3[C@@H](c3ccc(N(C)CCCCCC)cc3)C[C@@]21C parameter_measured=IC50 observed_measurement=0.18
query_smiles=CC#C[C@]1(O)CC[C@H]2[C@@H]3CCC4=CC(=O)CCC4=C3[C@@H](c3ccc(NC)cc3)C[C@@]21C parameter_measured=IC50 observed_measurement=0.073

P: CC#C[C@]1(O)CC[C@H]2[C@@H]3CCC4=CC(=O)CCC4=C3[C@@H](c3ccc(N(C)CCCCCCCCC)cc3)C[C@@]21C
Q: CC#C[C@]1(O)CC[C@H]2[C@@H]3CCC4=CC(=O)CCC4=C3[C@@H](c3ccc(N(C)CCC)cc3)C[C@@]21C
// query I need your help: which of the pair P , Q has higher IC50? Respond using the label that marks the chosen record.
// result P

====

# target_or_test_system: Progesterone receptor (Homo sapiens)
# measurement_protocol: Antagonist activity at progesterone receptor in human T47D cells assessed as inhibition of progesterone-induced alkaline phosphatase activity after 48 hrs
# Type: functional, cell-based
pIC50: −log10 of the molar value.
parameter_measured: pIC50

query_smiles=CC#C[C@]1(O)CC[C@H]2[C@@H]3CCC4=CC(=O)CCC4=C3[C@@H](c3ccc(N(C)CCCCCC(=O)OC)cc3)C[C@@]21C target_or_test_system="Progesterone receptor (Homo sapiens)" parameter_measured=pIC50 observed_measurement=9.40

a: CC#C[C@]1(O)CC[C@H]2[C@@H]3CCC4=CC(=O)CCC4=C3[C@@H](c3ccc(N(C)CCCCCCCCC)cc3)C[C@@]21C
b: CC#C[C@]1(O)CC[C@H]2[C@@H]3CCC4=CC(=O)CCC4=C3[C@@H](c3ccc(N(C)CCCCCCCCCCC(=O)O)cc3)C[C@@]21C
// query Given a and given b , which shows the smaller recorded pIC50? Response format: the label of the selected entry.
// result a
(a: 8.85, b: 9.34)

====

# target_or_test_system: Progesterone receptor (Homo sapiens, UniProt P06401)
# measurement_protocol: Antagonist activity at progesterone receptor in human T47D cells assessed as inhibition of progesterone-induced alkaline phosphatase activity after 48 hrs
# Format: functional, cell-based
pIC50: −log10 of the molar value.
parameter_measured: pIC50

query_smiles=CC#C[C@]1(O)CC[C@H]2[C@@H]3CCC4=CC(=O)CCC4=C3[C@@H](c3ccc(N(C)CCCCCC=O)cc3)C[C@@]21C observed_measurement=9.82
query_smiles=CC#C[C@]1(O)CC[C@H]2[C@@H]3CCC4=CC(=O)CCC4=C3[C@@H](c3ccc(N(C)CCCCCC)cc3)C[C@@]21C observed_measurement=9.18
query_smiles=CC#C[C@]1(O)CC[C@H]2[C@@H]3CCC4=CC(=O)CCC4=C3[C@@H](c3ccc(N(C)CCCOCc4ccc(C(N)=O)c(O)c4)cc3)C[C@@]21C observed_measurement=9.34
query_smiles=CC#C[C@]1(O)CC[C@H]2[C@@H]3CCC4=CC(=O)CCC4=C3[C@@H](c3ccc(N(C)CCCCCC4OCCO4)cc3)C[C@@]21C observed_measurement=9.77

a: CC#C[C@]1(O)CC[C@H]2[C@@H]3CCC4=CC(=O)CCC4=C3[C@@H](c3ccc(N(C)CCCOC(=O)CCC(=O)O)cc3)C[C@@]21C
b: CC#C[C@]1(O)CC[C@H]2[C@@H]3CCC4=CC(=O)CCC4=C3[C@@H](c3ccc(N(C)C(=O)CCCC(=O)O)cc3)C[C@@]21C
// query // which entry has the larger pIC50 value, a or b ? Label of pick, please.
// result a

====

# target_or_test_system: Progesterone receptor (Homo sapiens, UniProt P06401)
# measurement_protocol: Antagonist activity at progesterone receptor in human T47D cells assessed as inhibition of progesterone-induced alkaline phosphatase activity after 48 hrs
# Type: functional, cell-based
parameter_measured: IC50 (nM)

# example entries with known answers
query_smiles=CC#C[C@]1(O)CC[C@H]2[C@@H]3CCC4=CC(=O)CCC4=C3[C@@H](c3ccc(N(C)CCCO)cc3)C[C@@]21C observed_measurement=0.12
query_smiles=CC#C[C@]1(O)CC[C@H]2[C@@H]3CCC4=CC(=O)CCC4=C3[C@@H](c3ccc(N(C)CCCCCCCCCCC(=O)OC)cc3)C[C@@]21C observed_measurement=0.63
query_smiles=CC#C[C@]1(O)CC[C@H]2[C@@H]3CCC4=CC(=O)CCC4=C3[C@@H](c3ccc(N(C)C(=O)NCCCCCC(=O)OC)cc3)C[C@@]21C observed_measurement=2.2

P: CC#C[C@]1(O)CC[C@H]2[C@@H]3CCC4=CC(=O)CCC4=C3[C@@H](c3ccc(N(C)CCC(=O)OC)cc3)C[C@@]21C
Q: CC#C[C@]1(O)CC[C@H]2[C@@H]3CCC4=CC(=O)CCC4=C3[C@@H](c3ccc(OC)cc3)C[C@@]21C
R: CC#C[C@]1(O)CC[C@H]2[C@@H]3CCC4=CC(=O)CCC4=C3[C@@H](c3ccc(N(C)C(=S)NCCCC)cc3)C[C@@]21C
// query hey, can you rank those compounds up there by IC50? biggest number first please Write out the labels following the order that was asked for.
// result R, P, Q

====

# target_or_test_system: UniProtKB P06401
# measurement_protocol: Antagonist activity at progesterone receptor in human T47D cells assessed as inhibition of progesterone-induced alkaline phosphatase activity after 48 hrs
# Type: functional, cell-based
pIC50: −log10 of the molar value.
parameter_measured: pIC50

Known results for compounds:
query_smiles=CC#C[C@]1(O)CC[C@H]2[C@@H]3CCC4=CC(=O)CCC4=C3[C@@H](c3ccc(N(C)CCCCCC(=O)O)cc3)C[C@@]21C observed_measurement=9.36
query_smiles=CC#C[C@]1(O)CC[C@H]2[C@@H]3CCC4=CC(=O)CCC4=C3[C@@H](c3ccc(N(C)CCCCCCCC(=O)O)cc3)C[C@@]21C observed_measurement=9.57
query_smiles=CC#C[C@]1(O)CC[C@H]2[C@@H]3CCC4=CC(=O)CCC4=C3[C@@H](c3ccc(N(C)CCCOC(=O)CCC(=O)OC)cc3)C[C@@]21C observed_measurement=8.92
query_smiles=CC#C[C@]1(O)CC[C@H]2[C@@H]3CCC4=CC(=O)CCC4=C3[C@@H](c3ccc(N(C)CCCCCCOC(=O)CCC(=O)O)cc3)C[C@@]21C observed_measurement=9.60

P: CC#C[C@]1(O)CC[C@H]2[C@@H]3CCC4=CC(=O)CCC4=C3[C@@H](c3ccc(N(C)CCCCCCCC(=O)OC)cc3)C[C@@]21C
Q: CC#C[C@]1(O)CC[C@H]2[C@@H]3CCC4=CC(=O)CCC4=C3[C@@H](c3ccc(N(C)CCC(=O)O)cc3)C[C@@]21C
R: CC#C[C@]1(O)CC[C@H]2[C@@H]3CCC4=CC(=O)CCC4=C3[C@@H](c3ccc(N(C)CCC)cc3)C[C@@]21C
// query Rank items: key pIC50, increasing. Returns: the labels listed in the requested order.
// result Q, P, R
(Q: 7.47, P: 9.33, R: 9.57)

I: CC#C[C@]1(O)CC[C@H]2[C@@H]3CCC4=CC(=O)CCC4=C3[C@@H](c3ccc(N(C)C(=O)CCCCC(=O)O)cc3)C[C@@]21C
II: CC#C[C@]1(O)CC[C@H]2[C@@H]3CCC4=CC(=O)CCC4=C3[C@@H](c3ccc(N(C)CCC(=O)Nc4ccc(C(N)=O)c(O)c4)cc3)C[C@@]21C
// query // which entry reports the smaller pIC50, I or II ? API: response body contains the label of the selected item.
// result I

I: CC#C[C@]1(O)CC[C@H]2[C@@H]3CCC4=CC(=O)CCC4=C3[C@@H](c3ccc(N(C)C(=O)NCCCCCC(=O)N[C@@H](CC(C)C)C(=O)O)cc3)C[C@@]21C
II: CC#C[C@]1(O)CC[C@H]2[C@@H]3CCC4=CC(=O)CCC4=C3[C@@H](c3ccc(N(C)CCCCCCOC(=O)CCC(=O)OC)cc3)C[C@@]21C
III: CC#C[C@]1(O)CC[C@H]2[C@@H]3CCC4=CC(=O)CCC4=C3[C@@H](c3ccc(N(C)C(=O)CCCCC)cc3)C[C@@]21C
// query Sort by pIC50, descending. State the ranking by listing the labels in the requested order.
// result II, III, I
(II: 9.77, III: 9.16, I: 7.14)
